Target: recombinant human NR2F6 protein (Homo sapiens, UniProt P10588)
Sequence (P10588 whole entry): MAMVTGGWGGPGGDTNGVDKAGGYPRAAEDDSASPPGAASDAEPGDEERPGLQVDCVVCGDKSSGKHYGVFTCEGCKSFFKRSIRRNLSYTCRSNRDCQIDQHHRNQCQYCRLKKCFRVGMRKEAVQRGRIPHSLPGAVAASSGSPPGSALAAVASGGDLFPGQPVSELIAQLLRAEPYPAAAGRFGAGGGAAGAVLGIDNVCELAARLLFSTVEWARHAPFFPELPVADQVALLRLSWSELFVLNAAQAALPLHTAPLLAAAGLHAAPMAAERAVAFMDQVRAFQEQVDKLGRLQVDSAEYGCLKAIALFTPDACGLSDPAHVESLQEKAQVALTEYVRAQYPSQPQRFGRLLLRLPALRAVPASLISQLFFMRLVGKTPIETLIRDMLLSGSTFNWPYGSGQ
Assay: Biochemical NR2F6 binding assay (EnSpire label-free)
Settings: label-free binding to immobilized purified recombinant human NR2F6; ligands 1 nM to 100 uM, 1% DMSO
pEC50: −log10 of the molar value. Counter-ions that a name gives are not always drawn.
reportedEndpoint: pEC50

For orientation, consider the following solved cases.
• O=C(Nc1cccc2cnccc12)N1CCC(c2ccccc2)C1 (stereo not shown) = < 4.30
• c1ccc([C@H]2CNC[C@@H]2Oc2cccc3cnccc23)cc1 (racemic) [Compound I-64, dihydrochloride] = 5.00 to 6.00

State recorded pEC50 for all listed compounds.
1. O=C(Nc1cccc(Oc2ccccn2)c1)[C@H]1CNC[C@@H]1c1ccccc1 (racemic) [Compound I-99, dihydrochloride]
2. O=C(Nc1cccc(Oc2cccnc2)c1)[C@@H]1CNC[C@H]1c1ccccc1 (racemic) [Compound I-52, dihydrochloride]

Found:
1. < 4.30
2. < 4.30
